Value source: patent EP0787717A1

system: Na ^+/H ^+-Exchangers von Kaninchenerythrocyten (Oryctolagus cuniculus, UniProt P23791)
Construct: den Na ^+-Influx in die Erythrocyten via Na ^+/H ^+-Austausch flammenphotometrisch bestimmen zu können
Sequence (P23791 whole entry): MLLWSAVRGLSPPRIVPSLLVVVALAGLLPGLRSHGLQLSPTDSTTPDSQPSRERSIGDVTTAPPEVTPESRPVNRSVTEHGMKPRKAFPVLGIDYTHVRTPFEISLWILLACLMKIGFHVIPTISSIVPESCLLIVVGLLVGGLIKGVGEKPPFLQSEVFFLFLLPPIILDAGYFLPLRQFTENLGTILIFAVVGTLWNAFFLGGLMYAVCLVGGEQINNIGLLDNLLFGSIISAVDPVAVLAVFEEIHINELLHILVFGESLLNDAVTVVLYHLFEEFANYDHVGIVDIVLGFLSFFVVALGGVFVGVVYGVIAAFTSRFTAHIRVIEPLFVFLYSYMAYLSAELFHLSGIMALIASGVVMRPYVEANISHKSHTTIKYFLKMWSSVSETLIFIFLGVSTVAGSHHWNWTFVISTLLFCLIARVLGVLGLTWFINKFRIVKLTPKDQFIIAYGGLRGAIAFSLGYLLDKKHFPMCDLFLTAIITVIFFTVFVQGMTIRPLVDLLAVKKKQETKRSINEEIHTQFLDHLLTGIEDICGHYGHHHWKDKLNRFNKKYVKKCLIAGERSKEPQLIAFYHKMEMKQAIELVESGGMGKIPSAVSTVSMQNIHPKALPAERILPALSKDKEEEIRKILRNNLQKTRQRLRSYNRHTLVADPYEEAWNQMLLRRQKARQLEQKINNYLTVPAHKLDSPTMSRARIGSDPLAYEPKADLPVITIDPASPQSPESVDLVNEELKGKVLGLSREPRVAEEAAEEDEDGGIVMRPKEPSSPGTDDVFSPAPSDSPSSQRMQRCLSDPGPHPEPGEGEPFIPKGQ
experiment summary: Inhibition of the Na+/H+ exchanger of rabbit erythrocytes (amiloride-sensitive sodium influx, flame photometry)
stated conditions: hyperosmolar salt-sucrose medium, pH 7,4, 37°C, read-out: IC50 Inhibition des Na ^+/H ^+ -Exchangers
metric: IC50 (µM)
Answers are plain numbers, in µM.

// known answers, use as guide
Record summary for NC(N)=NC(=O)c1ccc(-c2ccc(C(=O)N=C(N)N)cc2)cc1 [Beispiel 4, Biphenyl-4,4'-dicarbonsäure-diguanidid] : reported IC50 = 2

Record summary for NC(N)=NC(=O)c1ccc(-c2ccccc2C(=O)N=C(N)N)cc1 [Beispiel 2] : reported IC50 = 5

Record summary for NC(N)=NC(=O)c1ccc(S(=O)(=O)NC(=O)Nc2cccc(C(=O)N=C(N)N)c2)cc1 [Beispiel 5] : reported IC50 = 10

// below: IC50 requested for another compound
Record summary for NC(N)=NC(=O)c1ccc(-c2cccc(C(=O)N=C(N)N)c2)cc1 [Beispiel 1] : reported IC50 = 1.5
